- System: ACE (from rabbit lung) (Oryctolagus cuniculus)
- Construct: ACE (from rabbit lung) were obtained from Sigma-Aldrich Co; purchased Sigma-Aldrich Co. (St. Louis, MO, USA); host or cells: rabbit lung (tissue-derived enzyme)
- Sequence (P12822 34-1310): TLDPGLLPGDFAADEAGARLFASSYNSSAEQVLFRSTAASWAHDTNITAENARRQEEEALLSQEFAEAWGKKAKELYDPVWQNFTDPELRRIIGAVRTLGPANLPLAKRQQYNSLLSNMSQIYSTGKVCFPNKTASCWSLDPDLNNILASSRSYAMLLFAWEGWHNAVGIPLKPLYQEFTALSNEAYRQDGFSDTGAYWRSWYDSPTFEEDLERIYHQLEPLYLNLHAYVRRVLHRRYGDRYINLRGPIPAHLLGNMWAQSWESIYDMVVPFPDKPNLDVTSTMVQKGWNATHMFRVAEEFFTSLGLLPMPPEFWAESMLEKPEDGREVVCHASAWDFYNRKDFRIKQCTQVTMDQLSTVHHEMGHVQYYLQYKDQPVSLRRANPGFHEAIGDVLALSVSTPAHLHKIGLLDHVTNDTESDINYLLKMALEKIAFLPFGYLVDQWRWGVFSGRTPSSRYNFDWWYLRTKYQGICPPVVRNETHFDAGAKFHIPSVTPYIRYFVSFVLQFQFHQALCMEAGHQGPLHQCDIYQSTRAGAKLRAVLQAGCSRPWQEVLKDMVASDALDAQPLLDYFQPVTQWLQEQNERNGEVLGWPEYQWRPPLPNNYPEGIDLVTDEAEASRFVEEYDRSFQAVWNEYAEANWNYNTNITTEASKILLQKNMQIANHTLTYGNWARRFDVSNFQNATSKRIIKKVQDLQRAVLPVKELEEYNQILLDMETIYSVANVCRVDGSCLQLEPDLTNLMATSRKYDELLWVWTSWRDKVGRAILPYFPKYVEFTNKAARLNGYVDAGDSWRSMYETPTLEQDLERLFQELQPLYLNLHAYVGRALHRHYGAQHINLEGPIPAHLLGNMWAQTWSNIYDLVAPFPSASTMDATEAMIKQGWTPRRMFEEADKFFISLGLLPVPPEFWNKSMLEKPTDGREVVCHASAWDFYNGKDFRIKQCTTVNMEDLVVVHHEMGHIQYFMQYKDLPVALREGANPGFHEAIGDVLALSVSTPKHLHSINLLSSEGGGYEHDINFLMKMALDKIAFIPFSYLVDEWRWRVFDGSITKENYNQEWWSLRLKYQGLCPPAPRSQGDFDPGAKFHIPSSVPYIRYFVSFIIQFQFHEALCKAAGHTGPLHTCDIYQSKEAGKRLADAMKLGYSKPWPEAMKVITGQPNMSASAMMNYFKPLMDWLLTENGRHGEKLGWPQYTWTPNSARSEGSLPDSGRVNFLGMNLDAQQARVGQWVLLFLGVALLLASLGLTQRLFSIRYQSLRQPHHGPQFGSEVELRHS
- Procedure text: ACE inhibitory activity (HHL substrate, RP-HPLC of hippuric acid)
- Type: biochemical
- Condition: calculated from mmol/L values; read-out: ACE IC50 calculated in the units of mg/mL (converted)
Residues, ends and D or L forms follow the SMILES beside them.

| Compound | IC50, mM |
| --- | --- |
| CC(C)C[C@H](N)C(=O)N[C@H](C(=O)N[C@@H](CO)C(=O)O)C(C)C [Leu-Val-Ser] (H-Leu-Val-Ser-OH) | 0.599 |
| NC(=O)CC[C@H](NC(=O)[C@@H](N)Cc1ccc(O)cc1)C(=O)O [Tyr-Gln] (H-Tyr-Gln-OH) | 2 |
| N=C(N)NCCC[C@H](N)C(=O)NCC(=O)NCC(=O)N[C@@H](Cc1ccc(O)cc1)C(=O)O [Arg-Gly-Gly-Tyr] (H-RGGY-OH) | 1.48 |
| C[C@H](N)C(=O)N1CCC[C@H]1C(=O)N[C@@H](CO)C(=O)N[C@@H](Cc1ccc(O)cc1)C(=O)O [Ala-Pro-Ser-Tyr] (H-APSY-OH) | 1.47 |

###

- System: ACE (from rabbit lung) (Oryctolagus cuniculus)
- Construct: ACE (from rabbit lung) were obtained from Sigma-Aldrich Co; purchased Sigma-Aldrich Co. (St. Louis, MO, USA); host or cells: rabbit lung (tissue-derived enzyme)
- Procedure text: ACE inhibitory activity (HHL substrate, RP-HPLC of hippuric acid)
- Type: biochemical
- Condition: synthesized peptides; read-out: ACE IC50
Residues, ends and D or L forms follow the SMILES beside them.
Endpoint name: IC50 (µM)

| Compound | Endpoint name | Readout value |
| --- | --- | --- |
| C[C@H](N)C(=O)N1CCC[C@H]1C(=O)N[C@@H](CO)C(=O)N[C@@H](Cc1ccc(O)cc1)C(=O)O [Ala-Pro-Ser-Tyr] (H-APSY-OH) | IC50 | 1470 |
| N=C(N)NCCC[C@H](N)C(=O)NCC(=O)NCC(=O)N[C@@H](Cc1ccc(O)cc1)C(=O)O [Arg-Gly-Gly-Tyr] (H-RGGY-OH) | IC50 | 1480 |
| NC(=O)CC[C@H](NC(=O)[C@@H](N)Cc1ccc(O)cc1)C(=O)O [Tyr-Gln] (H-Tyr-Gln-OH) | IC50 | 2000 |
| CC(C)C[C@H](N)C(=O)N[C@H](C(=O)N[C@@H](CO)C(=O)O)C(C)C [Leu-Val-Ser] (H-Leu-Val-Ser-OH) | IC50 | 600 |
